assay: Tacrolimus concentrations and interdose AUC in ISBA requests of renal transplant patients; settings: human, in vivo, oral, Median; OAD; Train (n = 1184); read-out: Through level C0
recordedMetric: C0 (ng/mL)

- compound: "C=CC[C@@H]1/C=C(\\C)C[C@H](C)C[C@H](OC)[C@H]2O[C@@](O)(C(=O)C(=O)N3CCCC[C@H]3C(=O)O[C@H](/C(C)=C/[C@@H]3CC[C@@H](O)[C@H](OC)C3)[C@H](C)[C@@H](O)CC1=O)[C@H](C)C[C@@H]2OC [tacrolimus]"
  recordedMetric: "C0"
  valueMeasured: 12.6

----------
experiment: Tacrolimus concentrations and interdose AUC in ISBA requests of renal transplant patients; conditions: human, in vivo, oral, Minimum; OAD; Test (n = 394); read-out: Concentration C1 at 1 h
recordedMetric: concentration at 1 h (ng/mL)

- itemSmiles: "C=CC[C@@H]1/C=C(\\C)C[C@H](C)C[C@H](OC)[C@H]2O[C@@](O)(C(=O)C(=O)N3CCCC[C@H]3C(=O)O[C@H](/C(C)=C/[C@@H]3CC[C@@H](O)[C@H](OC)C3)[C@H](C)[C@@H](O)CC1=O)[C@H](C)C[C@@H]2OC"
  recordedMetric: "concentration at 1 h"
  valueMeasured: 8.6

----------
test: Tacrolimus concentrations and interdose AUC in ISBA requests of renal transplant patients; details: human, in vivo, oral, Maximum; OAD; Test (n = 394); read-out: Concentration C3 at 3 h

- itemSmiles: "C=CC[C@@H]1/C=C(\\C)C[C@H](C)C[C@H](OC)[C@H]2O[C@@](O)(C(=O)C(=O)N3CCCC[C@H]3C(=O)O[C@H](/C(C)=C/[C@@H]3CC[C@@H](O)[C@H](OC)C3)[C@H](C)[C@@H](O)CC1=O)[C@H](C)C[C@@H]2OC"
  concentration at 3 h: "17.9 ng/mL"

----------
assay: Tacrolimus concentrations and interdose AUC in ISBA requests of renal transplant patients; settings: human, in vivo, oral, Maxmum; TAD; Test (n = 1236); read-out: Concentration C1 at 1 h
recordedMetric: concentration at 1 h (ng/mL)

- itemSmiles: "C=CC[C@@H]1/C=C(\\C)C[C@H](C)C[C@H](OC)[C@H]2O[C@@](O)(C(=O)C(=O)N3CCCC[C@H]3C(=O)O[C@H](/C(C)=C/[C@@H]3CC[C@@H](O)[C@H](OC)C3)[C@H](C)[C@@H](O)CC1=O)[C@H](C)C[C@@H]2OC"
  recordedMetric: "concentration at 1 h"
  valueMeasured: 21.7

----------
assay: Tacrolimus concentrations and interdose AUC in ISBA requests of renal transplant patients; conditions: human, in vivo, oral, Median; OAD; Test (n = 394); read-out: Concentration C3 at 3 h

- molecule: "C=CC[C@@H]1/C=C(\\C)C[C@H](C)C[C@H](OC)[C@H]2O[C@@](O)(C(=O)C(=O)N3CCCC[C@H]3C(=O)O[C@H](/C(C)=C/[C@@H]3CC[C@@H](O)[C@H](OC)C3)[C@H](C)[C@@H](O)CC1=O)[C@H](C)C[C@@H]2OC [tacrolimus]"
  concentration at 3 h (ng/mL): 13

The values you see were collected from patent US20230411006A1.
